Values were extracted from patent US20120322725A1.

# ASSAYED SYSTEM: glucagon receptor (UniProt P47871 26-477, limits assumed)
# Sequence (P47871 26-477 limits assumed): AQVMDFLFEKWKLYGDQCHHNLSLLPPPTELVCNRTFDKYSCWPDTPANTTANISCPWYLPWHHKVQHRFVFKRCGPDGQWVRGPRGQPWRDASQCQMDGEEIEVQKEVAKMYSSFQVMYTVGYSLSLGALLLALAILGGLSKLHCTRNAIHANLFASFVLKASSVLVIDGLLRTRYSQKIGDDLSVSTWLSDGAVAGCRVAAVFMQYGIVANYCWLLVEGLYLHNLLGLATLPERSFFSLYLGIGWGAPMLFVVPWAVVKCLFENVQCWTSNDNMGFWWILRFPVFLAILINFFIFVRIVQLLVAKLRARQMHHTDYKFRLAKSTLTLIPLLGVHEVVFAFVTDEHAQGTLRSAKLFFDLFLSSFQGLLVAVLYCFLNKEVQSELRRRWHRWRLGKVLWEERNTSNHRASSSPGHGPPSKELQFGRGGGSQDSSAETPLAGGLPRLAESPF
# ASSAY SUMMARY: cell-based or functional assay
Square brackets hold non-standard residues; d marks the D form. Ends that are not written are not given here. Abu(4-SO3H) = N[C@@H](CCS(=O)(=O)O)C(=O)O
RESULT TYPE: cAMP IC50 (nM)
Answers are plain numbers, in nM.

These solved cases illustrate the format of a correct answer.
binder="FTSDYSKYLDSRRAQDFVQWLMNT-NH2 (also called peptide no) [Glucagon(aa6-29)-NH2]" result_type="cAMP IC50" unit_string=nM readout_number=346
binder="FTS[Abu(4-SO3H)]YSKYLDSRRAQDFVQWLMNT-NH2 (also called [hCys(SO3)9]Glucagon(aa6-29)-NH2) [[hCys^9(SO3H)]Glucagon(aa6-29)-NH2]" result_type="cAMP IC50" unit_string=nM readout_number=133
binder="FTSKYSKYLDSRRAQDFVQWLMNT-NH2 (also called [K^9]Glucagon(aa6-29)-NH2; peptide no) [[Lys^9]Glucagon(aa6-29)-NH2]" result_type="cAMP IC50" unit_string=nM readout_number=398

// next entry
Memo: FTSEYSKYLDSRRAQDFVQWLMNT-NH2 (also called [E^9]Glucagon(aa6-29)-NH2; peptide no) [[Glu^9]Glucagon(aa6-29)-NH2] , reported cAMP IC50: 97.2
